# PF50 (30 nM) per record follows
# System: HeLa cells
# test method notes: Potentiation Factor (PF50): MMS growth inhibition, SRB assay
# Assay type: cell-based
# experimental conditions: MMS 0-10 μg/ml, PARP inhibitor at 30 nM, ratio IC50 control / IC50 + inhibitor
# Experimental: The Potentiation Factor (PF50) for compounds is calculated as a ratio of the IC50 of control cell growth divided by the IC50 of cell growth+PARP inhibitor. Growth inhibition curves for both control and compound treated cells are in the presence of the alkylating agent methyl methanesulfonate (MMS). The test compounds were used at a fixed concentration of 0.2 micromolar. The concentrations of MMS were over a range from 0 to 10 μg/ml. […]
Quick one: just the number, no unit, thanks!

* N#Cc1ccnc(OC2CCN(C(=O)c3cc(Cc4n[nH]c(=O)c5ccccc45)ccc3F)CC2)c1 [Compound 26f] | 4.4
* O=C(c1cc(Cc2n[nH]c(=O)c3ccccc23)ccc1F)N1CCC(Oc2ccccn2)CC1 | 16.7
* O=C(c1cc(Cc2n[nH]c(=O)c3ccccc23)ccn1)N1CCC(Oc2ccccn2)CC1 | 1.8
* COC1CCN(C(=O)c2cc(Cc3n[nH]c(=O)c4cccc(Cl)c34)ccc2F)CC1 [Compound 104a] | 1.3
* CCOC1CCN(C(=O)c2cc(Cc3n[nH]c(=O)c4c(C)[nH]c(C)c34)ccc2F)CC1 | 1.3

Note PF50 (30 nM) for the compound shown: COC1CCN(C(=O)c2cccc(Cc3n[nH]c(=O)c4cccc(Cl)c34)c2)CC1 [Compound 119a]
1.0

Give a short answer stating reported PF50 (30 nM) for COC1CCN(C(=O)c2cc(Cc3n[nH]c(=O)c4c[nH]c(C)c34)ccc2F)CC1 .
1.0

Please look at this compound and report its PF50 (30 nM): O=C(O)COC1CCN(C(=O)c2cc(Cc3n[nH]c(=O)c4ccccc34)ccc2F)CC1
1.1

Kindly indicate its recorded PF50 (30 nM). Item: COc1cccc2c(=O)[nH]nc(Cc3ccc(F)c(C(=O)N4CCC(OC)CC4)c3)c12 [Compound 126a]
11.0

Return the recorded PF50 (30 nM) value; entry: O=C(c1cc(Cc2n[nH]c(=O)c3ccccc23)ccc1F)N1CCC(Oc2ccc(Cl)nc2)CC1 [Compound 26m]
2.4

Identify the reported PF50 (30 nM) for the following entry. CCOC1CCN(C(=O)c2cc(Cc3n[nH]c(=O)c4cccc(Cl)c34)ccc2F)CC1 [Compound 104b]
2.2

For the compound O=C(c1cc(Cc2n[nH]c(=O)c3ccccc23)ccn1)N1CCC(Oc2ccc(Cl)cc2)CC1 , report PF50 (30 nM).
1.7

====

# maps each entry to its PF50 (30 nM)
# System: HeLa cells
# test method notes: Potentiation Factor (PF50): MMS growth inhibition, SRB assay
# Assay type: cell-based
# experimental conditions: MMS 0-10 μg/ml, PARP inhibitor at 30 nM, ratio IC50 control / IC50 + inhibitor
Please give the numeric answer without any surrounding text.

Given O=C(COC1CCN(C(=O)c2cc(Cc3n[nH]c(=O)c4ccccc34)ccc2F)CC1)N1CCCCC1 , report its PF50 (30 nM) on HeLa cells.
5.8

Give PF50 (30 nM) for this entry on HeLa cells: O=C(c1cc(Cc2n[nH]c(=O)c3ccccc23)ccc1F)N1CCC(OCCN2CCOCC2)CC1
1.5

Write down measured PF50 (30 nM) (HeLa cells) for this compound. O=C(c1cc(Cc2n[nH]c(=O)c3ccccc23)ccc1F)N1CCC2(CC1)OCc1ccccc12
1.3

Give PF50 (30 nM) for O=C(c1cc(Cc2n[nH]c(=O)c3ccccc23)ccc1F)N1CCC(OC2CCCC2)CC1 tested on HeLa cells.
14.5

Check HeLa cells data and give PF50 (30 nM) for CCOC1CCN(C(=O)c2cc(Cc3n[nH]c(=O)c4ccccc34)ccc2F)CC1 .
14.1

Supply PF50 (30 nM) measured with HeLa cells for CCCOC1CCN(C(=O)c2cc(Cc3n[nH]c(=O)c4ccccc34)ccc2F)CC1 .
12.2

Recall the reported PF50 (30 nM) of O=C(c1cc(Cc2n[nH]c(=O)c3ccccc23)ccc1F)N1CCC(OC(CF)CF)CC1 on HeLa cells and write it down.
25.9

State PF50 (30 nM) on HeLa cells. Entry: O=C(COC1CCN(C(=O)c2cc(Cc3n[nH]c(=O)c4ccccc34)ccc2F)CC1)N1CC(F)(F)C1
1.9
